# Tested on: HEK-uPAR xenograft-bearing mice
# Condition description: mouse, in vivo
Rule: fulfilled for Xgrft-to-liver ratio not less than 7, not fulfilled for anything less.

compound="Cc1ccc(CCCC(=O)NCCOCCOCCOCCC(=O)NCCCC[C@H](NC(=O)CN2CCN(CC(=O)O)CCN(CC(=O)O)CCN(CC(=O)O)CC2)C(=O)N[C@@H](CC(=O)O)C(=O)N[C@@H](CC2CCCCC2)C(=O)N[C@@H](Cc2ccccc2)C(=O)N[C@H](CO)C(=O)N[C@H](CCCNC(=N)N)C(=O)N[C@@H](Cc2ccc(O)cc2)C(=O)N[C@@H](CC(C)C)C(=O)N[C@@H](Cc2c[nH]c3ccccc23)C(=O)N[C@@H](CO)C(N)=O)cc1 [[^177Lu]Lu-uPAR-15, metal not drawn]" group_label="not fulfilled"
compound="Cc1ccc(CCCC(=O)NCCOCCOCCOCCOCCC(=O)NCCCC[C@H](NC(=O)CC[C@H](C(=O)O)N2CCN(CC(=O)O)CCN(CC(=O)O)CCN(CC(=O)O)CC2)C(=O)N[C@@H](CC(=O)O)C(=O)N[C@@H](CC2CCCCC2)C(=O)N[C@@H](Cc2ccccc2)C(=O)N[C@H](CO)C(=O)N[C@H](CCCNC(=N)N)C(=O)N[C@@H](Cc2ccc(O)cc2)C(=O)N[C@@H](CC(C)C)C(=O)N[C@@H](Cc2c[nH]c3ccccc23)C(=O)N[C@@H](CO)C(N)=O)cc1 [[^177Lu]Lu-uPAR-17, metal not drawn]" group_label=fulfilled
compound="Cc1ccc(CCCC(=O)NCCCCCCCC(=O)NCCCC[C@H](NC(=O)CN2CCN(CC(=O)O)CCN(CC(=O)O)CCN(CC(=O)O)CC2)C(=O)N[C@@H](CC(=O)O)C(=O)N[C@@H](CC2CCCCC2)C(=O)N[C@@H](Cc2ccccc2)C(=O)N[C@H](CO)C(=O)N[C@H](CCCNC(=N)N)C(=O)N[C@@H](Cc2ccc(O)cc2)C(=O)N[C@@H](CC(C)C)C(=O)N[C@@H](Cc2c[nH]c3ccccc23)C(=O)N[C@@H](CO)C(N)=O)cc1 [[^177Lu]Lu-uPAR-12, metal not drawn]" group_label="not fulfilled"
compound="Cc1ccc(CCCC(=O)NCCOCCOCCOCCOCCOCCC(=O)NCCCC[C@H](NC(=O)CN2CCN(CC(=O)O)CCN(CC(=O)O)CCN(CC(=O)O)CC2)C(=O)N[C@@H](CC(=O)O)C(=O)N[C@@H](CC2CCCCC2)C(=O)N[C@@H](Cc2ccccc2)C(=O)N[C@H](CO)C(=O)N[C@H](CCCNC(=N)N)C(=O)N[C@@H](Cc2ccc(O)cc2)C(=O)N[C@@H](CC(C)C)C(=O)N[C@@H](Cc2c[nH]c3ccccc23)C(=O)N[C@@H](CO)C(N)=O)cc1 [[^177Lu]Lu-uPAR-18, metal not drawn]" group_label=fulfilled
compound="Cc1ccc(CCCC(=O)NCCOCCOCCOCCOCCC(=O)NC[C@H](NC(=O)CN2CCN(CC(=O)O)CCN(CC(=O)O)CCN(CC(=O)O)CC2)C(=O)N[C@@H](CC(=O)O)C(=O)N[C@@H](CC2CCCCC2)C(=O)N[C@@H](Cc2ccccc2)C(=O)N[C@H](CO)C(=O)N[C@H](CCCNC(=N)N)C(=O)N[C@@H](Cc2ccc(O)cc2)C(=O)N[C@@H](CC(C)C)C(=O)N[C@@H](Cc2c[nH]c3ccccc23)C(=O)N[C@@H](CO)C(N)=O)cc1 [[^177Lu]Lu-uPAR-14, metal not drawn]" group_label=fulfilled
